System: MCP-3 release by human PBMC
Assay: Chemokine induction in PBMC (capture ELISA)
Type: cell-based
Conditions: 20 μg/ml peptide, background (6) subtracted
Experimental: FIG. 16. Induction of MCP3 release by 7.5×10^5 human PBMC in response to treatment with 20 or 100 μg/ml of different peptides for 24 hours. Venous blood (20 ml) from healthy volunteers was collected in Vacutainer® collection tubes containing sodium heparin as an anticoagulant (Becton Dickinson, Mississauga, ON) in accordance with UBC ethical approval and guidelines. […]
Residues, ends and D or L forms follow the SMILES beside them.
MEASUREMENT_KIND: Chemokine induction MCP-3 (pg/mL)
The reply should contain only the number, in pg/mL.

Chemokine induction MCP-3 for CC[C@H](C)[C@H](N)C(=O)N[C@@H](Cc1c[nH]c2ccccc12)C(=O)N[C@H](C(=O)N[C@H](C(=O)N[C@@H](Cc1c[nH]c2ccccc12)C(=O)N[C@@H](CCCNC(=N)N)C(=O)N[C@@H](CCCNC(=N)N)C(N)=O)[C@@H](C)CC)C(C)C [HH18, IWVIWRR-NH2] (H-IWVIWRR-NH2; N-terminus assumed) ? 32

Which Chemokine induction MCP-3 value belongs to N=C(N)NCCC[C@H](NC(=O)[C@H](CCCNC(=N)N)NC(=O)[C@H](Cc1c[nH]c2ccccc12)NC(=O)[C@H](Cc1c[nH]c2ccccc12)NC(=O)[C@H](CCCCN)NC(=O)[C@H](Cc1c[nH]c2ccccc12)NC(=O)[C@H](Cc1c[nH]c2ccccc12)NC(=O)[C@H](CCCNC(=N)N)NC(=O)[C@@H](N)CCCCN)C(N)=O [HHC36, KRWWKWWRR] (H-KRWWKWWRR-NH2; N-terminus assumed) ? 1

What value of measured Chemokine induction MCP-3 is listed for CC(C)[C@H](NC(=O)[C@H](CCCNC(=N)N)NC(=O)[C@H](CCCCN)NC(=O)[C@@H](NC(=O)[C@H](Cc1ccccc1)NC(=O)[C@H](CCCCN)NC(=O)[C@H](Cc1c[nH]c2ccccc12)NC(=O)[C@@H](NC(=O)[C@H](C)N)C(C)C)C(C)C)C(N)=O [HHC123, AVWKFVKRV] (H-AVWKFVKRV-NH2; N-terminus assumed) ? 0

What value of measured Chemokine induction MCP-3 is listed for CC[C@H](C)[C@H](NC(=O)[C@H](Cc1c[nH]c2ccccc12)NC(=O)[C@H](CCCCN)NC(=O)[C@H](Cc1c[nH]c2ccccc12)NC(=O)[C@H](Cc1c[nH]c2ccccc12)NC(=O)[C@H](CCCNC(=N)N)NC(=O)[C@@H](N)CCCCN)C(=O)N[C@@H](CCCNC(=N)N)C(=O)N[C@@H](Cc1c[nH]c2ccccc12)C(N)=O [HHC10, KRWWKWIRW] (H-KRWWKWIRW-NH2; N-terminus assumed) ? -1

I would be grateful if you could share the reported Chemokine induction MCP-3 for CC[C@H](C)[C@H](NC(=O)[C@H](C)N)C(=O)N[C@@H](CCCNC(=N)N)C(=O)N[C@@H](CCCNC(=N)N)C(=O)N[C@@H](Cc1c[nH]c2ccccc12)C(=O)N[C@@H](CCCNC(=N)N)C(=O)N[C@H](C(=O)N[C@@H](CCCNC(=N)N)C(=O)N[C@@H](CCCCN)C(N)=O)[C@@H](C)CC [HHC142, AIRRWRIRK] (H-AIRRWRIRK-NH2; N-terminus assumed) . 1

Query (compound): CC[C@H](C)[C@H](NC(=O)[C@H](CC(N)=O)NC(=O)[C@H](CCCCN)NC(=O)[C@H](Cc1ccccc1)NC(=O)[C@H](CCCNC(=N)N)NC(=O)[C@H](Cc1c[nH]c2ccccc12)NC(=O)[C@H](C)N)C(=O)N[C@@H](CCCNC(=N)N)C(=O)N[C@@H](CCCCN)C(N)=O [HHC126, AWRFKNIRK] (H-AWRFKNIRK-NH2; N-terminus assumed) ; field requested: Chemokine induction MCP-3 3
